experiment: Metabolic stability in liver S9 fraction (disappearance, half-life, CLint); conditions: Syrian, hamster, pooled liver S9, pH 7.4
OUTCOME MEASURE: microsomal CLint at 1 µM
Reply with the number and its unit after it.

IN: Value lookup for microsomal CLint at 1 µM; key = `CCCCCCCCOCCOCCOCCOCCO`
OUT: 59.7 µL/min/mg

IN: Value lookup for microsomal CLint at 1 µM; key = `CCCCCCCCCCCCCCCCOCCOCCOCCOCCOCCOCCOCCOCCO`
OUT: 3.92 µL/min/mg

IN: Value lookup for microsomal CLint at 1 µM; key = `CCCCCCCCCCCCCCCCCCOCCOCCOCCO`
OUT: 16.2 µL/min/mg

IN: Value lookup for microsomal CLint at 1 µM; key = `CCCCCCCCCCOCCOCCOCCOCCOCCO`
OUT: 57.3 µL/min/mg

meta.source: paper PMC11272826
